# System: MS2 coat protein
# experiment-notes: apparent KD of MS2 coat protein; higher = weaker reporter binding
# measurement-conditions: Eterna round: R107; input ligand: theophylline 20 uM
measured-parameter: apparent KD of MS2 coat protein (µM)

{"entry-sequence": "ACUCGGUGUUUGUUGCUCCGAGUGUAUGAUACCAGUUAGUUUUAUGGCCCUUGGCAGCAUAGGACAUGAGGAUCACCCAUGUGUU [#02 SameState-TheophyllineA]", "test-system": "MS2 coat protein", "measured-parameter": "apparent KD of MS2 coat protein", "recorded-result": 0.0411}
{"entry-sequence": "AGCAAGCAACAUGAGGAUCACCCAUGUGAAGGAGCGCCGAAUAAGGCAGGUAGGUCGCACAUGAAUAAAUCAUGUAAAAGCUUGC [MAT - Exclusion Arginine A - Mod of Eli - D23]", "test-system": "MS2 coat protein", "measured-parameter": "apparent KD of MS2 coat protein", "recorded-result": 0.164}
{"entry-sequence": "CUCCCGUGAGCGGCCGCCACUGGAGGCCUCGCGCGACAUGAGGAUCACCCAUGUUGGCCCGGCCUCAGGACCGGGUUCGCGCGAG [Same State - Tryptophan B Attempt #5 (HarryS)]", "test-system": "MS2 coat protein", "measured-parameter": "apparent KD of MS2 coat protein", "recorded-result": 0.0124}
{"entry-sequence": "UAUAUAUAUCACUAACUGUUCUUGAGGUCUCGAGGACCGGUACGGCCGCCACUCGUGCCGCCUCACAUGAGGAUCACCCAUGUCC [XTryp A #2]", "test-system": "MS2 coat protein", "measured-parameter": "apparent KD of MS2 coat protein", "recorded-result": 0.0794}
{"entry-sequence": "GAUGAUAUUGCAGAUACCAGACACAUGAGGAUCACCCAUGUCGCUGGGUCGCUGGGUCGUGUCCCUUGGCAGCUGCGAUAUCAUC [Tibet]", "test-system": "MS2 coat protein", "measured-parameter": "apparent KD of MS2 coat protein", "recorded-result": 0.0478}
{"entry-sequence": "ACGACGCAUACAGAUACCAGUAGAACAUGAGGAUCACCCAUGUCUGAGGCGCUCCGCCACUGCCCUUGGCAGCUGUAUGCGUCAG [SSTheo B #11]", "test-system": "MS2 coat protein", "measured-parameter": "apparent KD of MS2 coat protein", "recorded-result": 0.0126}
{"entry-sequence": "GCUGUACCAUGAAGGAGCGUCAUGGAUUGCGAAUACACAUGAGGAUCACCCAUGUUUUUAUGACAGGUAGGUCGCAUGGUACAGC [#01 Same State - Arginine B]", "test-system": "MS2 coat protein", "measured-parameter": "apparent KD of MS2 coat protein", "recorded-result": 0.0245}
{"entry-sequence": "UUAUAUAUACAUGAGGAUCACCCAUGUGAUACCAGCCUGGAAACAGGCCCUUGGCAGCACAAAUACUCCAGAAAAUAUAAUAAAU [MAT - Exclusion Theophlline A - Mod of Eli - D4]", "test-system": "MS2 coat protein", "measured-parameter": "apparent KD of MS2 coat protein", "recorded-result": 0.0568}
{"entry-sequence": "ACAUGAGGAUCACCCAUGUAUCAACGGGAAGGAGCGCCAAACAAGGCAGGUAGGUCGCCCACAUGAGGAUCACCCGUGUGUUGGG [Exclusion Arginine A GF 30]", "test-system": "MS2 coat protein", "measured-parameter": "apparent KD of MS2 coat protein", "recorded-result": 0.0585}
{"entry-sequence": "AUUAAUAGUUGUGAUACCAGACGAACAUGAGGAUCACCCAUGUAACUUUUAGGUGUUGUAGUCCCUUGGCAGCACUAUGUAGUUA [JR_SSTheophyB_Sub013]", "test-system": "MS2 coat protein", "measured-parameter": "apparent KD of MS2 coat protein", "recorded-result": 0.0445}
{"entry-sequence": "UACGCUAGGGCGGCCGCCACUCGGACAUGAGGAUCACCCAUGUCGAUUAAUUGAAGGACAUGAAUGAGGACCGGGCUAAGCUAGG [Same State - Tryptophan B / B]", "test-system": "MS2 coat protein", "measured-parameter": "apparent KD of MS2 coat protein", "recorded-result": 0.0389}
{"entry-sequence": "UGUAUGGACUGAAGGAGCGGGUAAUAAACUUGAGGAUCACCCAGGUAAUAGGCGAAAGCCACCCAGGUAGGUCGCAGUCCAUACU", "test-system": "MS2 coat protein", "measured-parameter": "apparent KD of MS2 coat protein", "recorded-result": 0.0389}
{"entry-sequence": "ACAUGAGGAUCACCCAUGUCAUGAGGUUCACGAGGACCGGUACGGCCGCCACUCGGGCUUCGGAUCACGGAUGUACAUGAUGAUC [kmullin1]", "test-system": "MS2 coat protein", "measured-parameter": "apparent KD of MS2 coat protein", "recorded-result": 0.0922}
